Each entry below carries its recorded PBM E-score.
- system-tested: Stb4 (UniProt P50104)
- Sequence (P50104 whole entry): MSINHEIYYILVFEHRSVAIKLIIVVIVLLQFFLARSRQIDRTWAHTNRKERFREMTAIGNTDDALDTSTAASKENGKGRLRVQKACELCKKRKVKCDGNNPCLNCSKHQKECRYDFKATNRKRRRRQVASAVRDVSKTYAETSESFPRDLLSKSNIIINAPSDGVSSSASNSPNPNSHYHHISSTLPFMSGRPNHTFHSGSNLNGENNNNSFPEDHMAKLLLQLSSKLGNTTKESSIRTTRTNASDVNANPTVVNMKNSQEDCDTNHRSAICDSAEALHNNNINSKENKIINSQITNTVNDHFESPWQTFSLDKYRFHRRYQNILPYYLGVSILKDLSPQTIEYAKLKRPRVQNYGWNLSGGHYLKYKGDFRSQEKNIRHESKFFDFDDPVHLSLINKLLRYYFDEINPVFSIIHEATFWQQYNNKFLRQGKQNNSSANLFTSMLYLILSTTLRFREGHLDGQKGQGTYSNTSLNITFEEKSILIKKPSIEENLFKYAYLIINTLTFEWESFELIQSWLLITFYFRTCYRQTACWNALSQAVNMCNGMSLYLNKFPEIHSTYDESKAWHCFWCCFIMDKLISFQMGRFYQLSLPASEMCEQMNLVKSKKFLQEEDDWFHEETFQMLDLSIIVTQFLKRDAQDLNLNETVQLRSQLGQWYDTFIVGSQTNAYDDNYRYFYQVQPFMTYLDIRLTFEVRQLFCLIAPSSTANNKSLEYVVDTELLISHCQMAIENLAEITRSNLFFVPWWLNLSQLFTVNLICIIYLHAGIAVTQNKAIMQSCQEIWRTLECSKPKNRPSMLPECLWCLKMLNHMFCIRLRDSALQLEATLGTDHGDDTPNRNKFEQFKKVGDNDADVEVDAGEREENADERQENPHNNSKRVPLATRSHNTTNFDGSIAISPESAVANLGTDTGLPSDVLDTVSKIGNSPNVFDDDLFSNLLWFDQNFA
- assay-comment: PBM E-score (8-mer binding enrichment) (E-score (-0.5 to 0.5)); higher = stronger / more preferred TF binding
- protocol-conditions: protein concentration: 200 nM; construct: GST-DNA-binding domain
In all, about 33,000 sequences were measured (“E-score (-0.5 to 0.5)”: median about -0.056, highest 2% from about 0.38 on). For the sample, the highest values were picked, then their nearest neighbours and some sequences at random.

| residue-sequence | PBM E-score |
| --- | --- |
| ACGGGTCA | 0.0265 |
| CGTGTTTA | -0.00808 |
| CACCGGAG | 0.125 |
| TCGGTAAA | 0.433 |
| ATCTCGGG | 0.449 |
| ACGACGCG | -0.0636 |
| CACCGGAA | 0.412 |
| CCGACTAA | 0.29 |
| ATCTCGAG | -0.0973 |
| ACGGCAGA | 0.156 |
| CCGACCCC | 0.214 |
| ATGCCTTC | -0.0568 |
| CGTCTTTA | -0.0915 |
| TGGAACAA | -0.2 |
| CAGCTCCA | -0.265 |
| ATCGGCTG | 0.328 |
| ATATGGCG | 0.0558 |
| CTTAGAAC | -0.0637 |
| CCTCTTAC | -0.274 |
| CTAGGAAC | -0.00703 |
| ATCTCGCA | -0.035 |
| ACGACCCG | 0.251 |
| AGATCGGA | 0.438 |
| CCGACCCG | 0.407 |
| GGCTATAA | 0.104 |
| AGCGGAAC | 0.316 |
| GCGACGGA | 0.245 |
| GCGGTTAA | 0.17 |
| CCGGGTAA | 0.418 |
| AATAGGAG | -0.317 |
| CCGCCAAG | -0.059 |
| GGATCGGA | 0.402 |
| CGTCCGGA | 0.3 |
| ATCTCGCG | -0.0115 |
| CCGGGTAC | 0.375 |
| CCGGCACA | 0.307 |
| AGATCGGC | 0.189 |
| GGCGGAAC | 0.356 |
| ATCTCGGA | 0.461 |
| GCCCTGCC | 0.0895 |
| ATCGGCTC | 0.279 |
| ATGTGCAG | -0.166 |
| GTTCCGGA | 0.435 |
| AACGACTA | -0.151 |
| TTCGGAAA | 0.474 |
| CAACCACC | 0.0572 |
| CCCAGAGC | -0.299 |
| ATTGGTAA | -0.137 |
| AAAGTGAC | -0.123 |
| GTTCCGTA | 0.314 |
| TCGCGTAA | 0.0292 |
| CGGAACAC | 0.367 |
| ATCCTGCG | -0.117 |
| TCAGCCGA | 0.385 |
| TCGGCCGA | 0.419 |
| CGGAACAA | 0.444 |
| AGTCCGGA | 0.332 |
| AGGTGGGG | -0.0596 |
| AACGGAAT | 0.315 |
| AGCGGAAT | 0.141 |
| ATCGAGAA | -0.157 |
| CGGAACAG | 0.427 |
| CACCGGAC | 0.215 |
| GCAGCCGA | 0.396 |
| GGTCCGGA | 0.34 |
| CCGGCACG | 0.293 |
| ACAGCTTC | 0.0141 |
| GTCTCGAA | -0.255 |
| CCTACCCA | -0.208 |
| CTTCCGGA | 0.396 |
| TCGGCTAA | 0.455 |
| CGATCGGA | 0.322 |
| GGATCGAA | 0.214 |
| CTTCTTGC | -0.0322 |
| ACCCCGTC | 0.167 |
| CCGGCAGA | 0.286 |
| CCGGTAAA | 0.312 |
| ACGACGGA | 0.22 |
| GTCTCGTA | -0.115 |
| AACGGCTA | 0.16 |
| ATTCCGGG | 0.353 |
| GTGGTCCA | -0.0876 |
| TACCGGAA | 0.394 |
| CTTCCGGC | 0.392 |
| GCGGCCGA | 0.217 |
| GGGAACAA | 0.225 |
| GCGGTAAA | 0.188 |
| CTCGGAAC | 0.485 |
| AGGAACAG | -0.243 |
| TCGGCACA | 0.441 |
| CGCGGCTC | 0.191 |

====

- system-tested: Stb4 (UniProt P50104)
- assay-comment: PBM E-score (8-mer binding enrichment) (E-score (-0.5 to 0.5)); higher = stronger / more preferred TF binding
- protocol-conditions: protein concentration: 200 nM; construct: GST-DNA-binding domain
In all, about 33,000 sequences were measured (“E-score (-0.5 to 0.5)”: median about -0.056, highest 2% from about 0.38 on). The entries come from a sample that favours the highest values as a whole.
Reported PBM E-score values for a set of sequences

| residue-sequence | PBM E-score |
| --- | --- |
| CCGGATTA | 0.319 |
| GCGGATAA | 0.403 |
| AGTTCATC | -0.107 |
| AAGGCTAG | -0.127 |
| GCGGATGA | 0.304 |
| AATGCGAA | 0.0466 |
| ACGAAGGC | -0.0627 |
| CCGGATAG | 0.424 |
| ACGGATTA | 0.145 |
| TAGGATAA | -0.0915 |
| ATGGATAC | 0.0478 |
| AACGAATG | -0.142 |
| CGGTCCCC | 0.141 |
| CGCTAGAA | -0.154 |
| CCGGATAA | 0.452 |
| CAGGATAG | -0.0723 |
| TGGGATAA | -0.182 |
| CAGGATAA | -0.12 |
| GTCAAAAC | -0.0364 |
| CGGGATAG | 0.191 |
| GAACGGTC | 0.148 |
| GGGGATAA | 0.00287 |

====

- system-tested: Stb4 (UniProt P50104)
- assay-comment: PBM E-score (8-mer binding enrichment) (E-score (-0.5 to 0.5)); higher = stronger / more preferred TF binding
- protocol-conditions: protein concentration: 200 nM; construct: GST-DNA-binding domain
In all, about 33,000 sequences were measured (“E-score (-0.5 to 0.5)”: median about -0.056, highest 2% from about 0.38 on). Many of the other results were omitted from the sample, so the highest values are more common in it than they were.
Quick reference: PBM E-score of the listed items.

| residue-sequence | system-tested | PBM E-score |
| --- | --- | --- |
| ACAGCCGG | Stb4 (UniProt P50104) | 0.35 |
| ACACGAAG | Stb4 (UniProt P50104) | 0.00748 |
| ACAGCCGC | Stb4 (UniProt P50104) | 0.105 |
| GCCCGAAC | Stb4 (UniProt P50104) | 0.262 |
| GCAGCCGC | Stb4 (UniProt P50104) | 0.154 |
| CCCGCCGA | Stb4 (UniProt P50104) | 0.367 |
| GCAGCCTA | Stb4 (UniProt P50104) | -0.153 |
| ACCCGAAC | Stb4 (UniProt P50104) | 0.463 |
| CCCCGAAC | Stb4 (UniProt P50104) | 0.338 |
| ACAGCCGA | Stb4 (UniProt P50104) | 0.383 |
| TCCCGACA | Stb4 (UniProt P50104) | 0.355 |

====

- system-tested: Stb4 (UniProt P50104)
- assay-comment: PBM E-score (8-mer binding enrichment) (E-score (-0.5 to 0.5)); higher = stronger / more preferred TF binding
- protocol-conditions: protein concentration: 200 nM; construct: GST-DNA-binding domain
In all, about 33,000 sequences were measured (“E-score (-0.5 to 0.5)”: median about -0.056, highest 2% from about 0.38 on). Many of the other results were omitted from the sample, so the highest values are more common in it than they were.
PBM E-score: recorded values

| residue-sequence | PBM E-score |
| --- | --- |
| ATATCGGC | 0.316 |
| AAATCGGA | 0.399 |
| ACTCCGAA | 0.385 |
| AGGTTCGC | 0.0812 |
| ACCCGGGA | 0.378 |
| AGGATAAA | -0.0635 |
| ATATCGGA | 0.383 |
| GAATGGTC | 0.0599 |
| GAACCGAC | 0.286 |
| CTATCGGA | 0.423 |
| ATCTGCAT | -0.071 |
| AAACCGAA | 0.259 |
| ACCCGAGG | 0.427 |
| ATCCGACA | 0.442 |
| ACCCGAGT | 0.423 |
| CGCCGAAA | 0.34 |
| CATGGGCG | -0.0118 |
| ACGTTCCA | -0.0774 |
| CTCCGACA | 0.227 |
| ACCCGAGA | 0.472 |
| CCGATAAG | 0.269 |
| AAGCTCGG | 0.439 |
| CGAGTGAC | -0.0128 |
| ATCTATCA | -0.0983 |
| ACGTTCCG | 0.398 |
| ACCGAACA | 0.313 |
| ACGAGTAG | -0.11 |
| ACCCCCGA | 0.317 |
| AGTGTGAT | -0.0318 |
| AAAGAAAC | 0.0504 |
| AACCCGCA | 0.156 |
| ACATATCT | -0.0348 |
| AGTATCTC | -0.0258 |
| GGCCCACC | 0.0688 |
| AGGATAAC | -0.159 |
| GACCCATC | 0.0784 |
| CTGGAGCA | -0.262 |
| ACCCGGGT | 0.41 |
| CAGCTCGA | -0.144 |
| CACTTCCG | 0.397 |
| CCCTAAGG | -0.232 |
| AGCCCCAC | -0.0851 |
| AGGATAAG | -0.0142 |
| CCGAGTTC | 0.396 |
| ACTCCGTA | 0.0548 |
| CCGAGTAC | 0.383 |
| ATTCTGCG | -0.0218 |
| GAGGAGTA | -0.00803 |
| CAGCTCGG | 0.392 |
| CCGAGTTA | 0.34 |
| AAGTTCCT | -0.00611 |
| CGGATAAG | 0.41 |
| CTTCTGTC | -0.158 |
| CAGTTCCG | 0.364 |
| AAGACTGA | -0.25 |
| CTATCGGC | 0.26 |
| AACTTCCT | -0.0245 |
| GCGATTGA | -0.113 |
| GCATCGGA | 0.359 |
| CCCCGAGG | 0.375 |
| GCCGAACA | 0.393 |
| ACACGAGT | -0.0741 |
| AACGCACC | -0.0468 |
| CCGAGTAA | 0.345 |
| GCGAGTAC | -0.0817 |
| AGGGCCGA | 0.232 |
| ACTCGAGG | -0.152 |
| ACCCCGAA | 0.369 |
| ATTAACCG | 0.413 |
| CTGCGAAC | -0.298 |
| CAATCGGA | 0.374 |
| GCCAATAA | 0.0672 |
| AAGTTCCG | 0.434 |
| AGGTTCCG | 0.383 |
| AACCGACG | 0.304 |
| CACTTCCC | 0.0457 |
| CTCCGACC | 0.315 |
| CGGATAAC | 0.452 |
| AATTAAAT | -0.0575 |
| ACGAGTAC | -0.106 |
| CCGAGTCC | 0.403 |
| GCGGGGGA | 0.0109 |
| CGACCAAG | -0.184 |
| GAACCGTA | 0.0316 |
| ATCCGACG | 0.452 |
| GACCCAAC | -0.116 |
| CGCGGCCG | 0.136 |
| CAGCTCGC | -0.13 |
| AGGTTCCC | -0.0987 |
| TGACGAAA | -0.207 |
| ACGTTCCT | -0.168 |
